molecular target: EPHB4 (human) (UniProt P54760); experiment: radiometric filter-binding kinase assay; conditions: compound 1.0 µM
Sequence (P54760 whole entry, looked up): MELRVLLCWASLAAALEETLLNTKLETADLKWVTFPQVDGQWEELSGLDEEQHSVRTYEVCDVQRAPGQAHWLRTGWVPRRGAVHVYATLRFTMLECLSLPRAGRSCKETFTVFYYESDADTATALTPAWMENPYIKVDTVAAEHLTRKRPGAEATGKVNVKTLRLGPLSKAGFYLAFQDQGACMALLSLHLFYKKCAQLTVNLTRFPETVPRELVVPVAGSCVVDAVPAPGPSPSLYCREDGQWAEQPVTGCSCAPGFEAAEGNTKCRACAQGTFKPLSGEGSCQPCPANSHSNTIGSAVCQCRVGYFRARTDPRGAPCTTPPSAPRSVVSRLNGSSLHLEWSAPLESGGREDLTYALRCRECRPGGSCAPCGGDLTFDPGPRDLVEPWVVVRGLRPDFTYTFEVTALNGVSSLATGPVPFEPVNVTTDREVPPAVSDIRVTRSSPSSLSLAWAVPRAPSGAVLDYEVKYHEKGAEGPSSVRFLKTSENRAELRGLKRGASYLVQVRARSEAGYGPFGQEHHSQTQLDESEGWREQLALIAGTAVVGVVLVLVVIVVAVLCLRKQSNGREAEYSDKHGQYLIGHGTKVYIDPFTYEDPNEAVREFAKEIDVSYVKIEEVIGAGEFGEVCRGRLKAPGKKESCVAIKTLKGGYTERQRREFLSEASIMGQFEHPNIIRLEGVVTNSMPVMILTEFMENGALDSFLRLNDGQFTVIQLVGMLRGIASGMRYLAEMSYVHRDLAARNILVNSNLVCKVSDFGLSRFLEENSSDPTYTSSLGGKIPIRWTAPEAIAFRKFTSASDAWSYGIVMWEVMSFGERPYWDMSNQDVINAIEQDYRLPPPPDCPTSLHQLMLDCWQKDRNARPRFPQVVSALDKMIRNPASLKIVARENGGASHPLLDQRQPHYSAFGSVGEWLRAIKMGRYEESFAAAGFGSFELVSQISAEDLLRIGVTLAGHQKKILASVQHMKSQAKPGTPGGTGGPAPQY

{"columns": ["molecule", "residual activity"],
 "data": [
  ["NS(=O)(=O)OC[C@@H]1C[C@@H](n2ccc3c(N[C@H]4CCc5ccccc54)ncnc32)C[C@@H]1O", "106%"],
  ["Cc1nc(-c2ccc(OCC(C)C)c(C#N)c2)sc1C(=O)O", "93%"],
  ["NC(=O)c1ccc(-c2ccc(Oc3cncc4sc(-c5nn[nH]n5)cc34)cc2)cc1", "97%"],
  ["Cc1ccc(-c2ccc3c(ccc4sc5c(c43)NC[C@@H](C)NC5=O)n2)cn1", "106%"],
  ["NCC(=O)Nc1ccc(-n2nc(C(F)(F)F)cc2-c2ccc3c(ccc4ccccc43)c2)cc1", "116%"],
  ["CC1=C(CO)C(=O)O[C@@H]([C@@H](C)[C@H]2CC[C@H]3[C@@H]4C[C@H]5O[C@]56[C@@H](O)C=CC(=O)[C@]6(C)C4CC[C@]23C)C1 (stereo partly drawn)", "119%"],
  ["Nc1cccc2c1CN(C1CCC(=O)NC1=O)C2=O (stereo not drawn)", "91%"],
  ["O=C(NOCC(O)CO)c1ccc(F)c(F)c1Nc1ccc(I)cc1Cl (stereo not drawn)", "98%"]
]}

====

biological target: CDK2 CCNA2 (human) (UniProt P20248+P24941); assay: radiometric filter-binding kinase assay; settings: compound 1.0 µM
Each entry below carries its recorded residual activity.

{"columns": ["substance.smiles", "units", "residual activity"],
 "data": [
  ["O=C(NOC[C@H](O)CO)c1ccc(F)c(F)c1Nc1ccc(I)cc1Cl", "%", 110],
  ["NS(=O)(=O)OC[C@@H]1C[C@@H](n2ccc3c(N[C@H]4CCc5ccccc54)ncnc32)C[C@@H]1O", "%", 84],
  ["O=C(Nc1nc2cc(C(F)(F)F)cc(NC3CC3)n2n1)c1cccnc1", "%", 85],
  ["CCNc1nc(Nc2cc(F)c(C(=O)N3CCOCC3)cc2OC)ncc1C(F)(F)F", "%", 102],
  ["Cc1nc(-c2ccc(OCC(C)C)c(C#N)c2)sc1C(=O)O", "%", 106]
]}

====

molecular target: ABL1 (human) (UniProt P00519); test: radiometric filter-binding kinase assay; details: compound 1.0 µM
Sequence (P00519 whole entry, looked up): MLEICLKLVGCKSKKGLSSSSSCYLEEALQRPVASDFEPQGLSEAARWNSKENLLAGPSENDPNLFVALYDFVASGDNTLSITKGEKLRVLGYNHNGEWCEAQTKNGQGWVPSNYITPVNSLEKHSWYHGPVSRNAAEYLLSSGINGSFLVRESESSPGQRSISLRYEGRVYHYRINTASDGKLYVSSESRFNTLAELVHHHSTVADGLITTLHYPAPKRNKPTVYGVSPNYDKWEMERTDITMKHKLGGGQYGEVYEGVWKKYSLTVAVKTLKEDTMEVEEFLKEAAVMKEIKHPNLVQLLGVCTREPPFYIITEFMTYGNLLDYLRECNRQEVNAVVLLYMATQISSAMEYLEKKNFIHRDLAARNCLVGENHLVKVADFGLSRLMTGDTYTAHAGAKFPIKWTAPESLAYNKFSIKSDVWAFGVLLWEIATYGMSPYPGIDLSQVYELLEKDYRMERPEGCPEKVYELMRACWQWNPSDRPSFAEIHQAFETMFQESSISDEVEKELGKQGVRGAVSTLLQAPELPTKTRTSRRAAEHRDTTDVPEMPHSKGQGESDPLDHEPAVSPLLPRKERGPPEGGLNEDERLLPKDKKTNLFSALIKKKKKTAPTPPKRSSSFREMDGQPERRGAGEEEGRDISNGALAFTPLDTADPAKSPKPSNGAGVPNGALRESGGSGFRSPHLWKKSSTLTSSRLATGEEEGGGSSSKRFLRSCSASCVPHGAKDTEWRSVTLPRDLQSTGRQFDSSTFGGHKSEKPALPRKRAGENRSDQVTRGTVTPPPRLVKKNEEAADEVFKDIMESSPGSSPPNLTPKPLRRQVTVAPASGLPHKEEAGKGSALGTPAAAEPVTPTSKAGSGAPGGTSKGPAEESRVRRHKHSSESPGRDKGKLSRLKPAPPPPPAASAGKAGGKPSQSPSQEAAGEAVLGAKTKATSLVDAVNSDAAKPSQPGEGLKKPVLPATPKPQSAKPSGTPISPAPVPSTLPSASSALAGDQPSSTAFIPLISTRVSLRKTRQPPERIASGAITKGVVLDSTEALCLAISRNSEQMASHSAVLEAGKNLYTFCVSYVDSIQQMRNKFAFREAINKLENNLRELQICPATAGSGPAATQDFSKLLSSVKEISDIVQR
Measured residual activity, listed per entry for reference.
quantity: residual activity (%)

{"columns": ["compound", "assayed.target", "value.measured"],
 "data": [
  ["C=CC(=O)N1CCC[C@@H](n2nc(-c3ccc(Oc4ccccc4)cc3)c3c(N)ncnc32)C1", "ABL1 (human) (UniProt P00519)", 80],
  ["NC(=O)c1c(NC(=O)C2CC2)sc2c1CCCC2", "ABL1 (human) (UniProt P00519)", 93],
  ["CNc1nc(-c2ccc3c(N)n[nH]c3c2)cc(N2C[C@@H](C(=O)NC3CCCCC3)CC[C@H]2C)n1", "ABL1 (human) (UniProt P00519)", 116],
  ["CC1=C(CO)C(=O)O[C@@H]([C@@H](C)[C@H]2CC[C@H]3[C@@H]4C[C@H]5O[C@]56[C@@H](O)C=CC(=O)[C@]6(C)C4CC[C@]23C)C1 (some centres not stated)", "ABL1 (human) (UniProt P00519)", 110],
  ["O=C(NOCC(O)CO)c1ccc(F)c(F)c1Nc1ccc(I)cc1Cl (configuration not stated)", "ABL1 (human) (UniProt P00519)", 101],
  ["CCNc1nc(Nc2cc(F)c(C(=O)N3CCOCC3)cc2OC)ncc1C(F)(F)F", "ABL1 (human) (UniProt P00519)", 102],
  ["COc1cc(O)c2c(c1)[C@H]1OC1C[C@H](O)[C@H](O)C(=O)/C=C\\C[C@H](C)OC2=O (some centres not stated)", "ABL1 (human) (UniProt P00519)", 105],
  ["Cc1cc(NC(=O)c2cccc(NC(=O)/C=C/CN(C)C)c2)ccc1Nc1nccc(-c2cccnc2)n1", "ABL1 (human) (UniProt P00519)", 86],
  ["O=C(NOC[C@H](O)CO)c1ccc(F)c(F)c1Nc1ccc(I)cc1Cl", "ABL1 (human) (UniProt P00519)", 103],
  ["C=C1C(=O)OC2C1CC/C(C)=C/CCC1(C)OC21 (configuration not stated)", "ABL1 (human) (UniProt P00519)", 119],
  ["Cc1ccc(-c2ccc3c(ccc4sc5c(c43)NC[C@@H](C)NC5=O)n2)cn1", "ABL1 (human) (UniProt P00519)", 113],
  ["CCCCCc1ccc(/C=C/[C@H](O)[C@@H](CO)NC)cc1", "ABL1 (human) (UniProt P00519)", 106],
  ["CCn1c(-c2nonc2N)nc2cncc(CNC3CCNCC3)c21", "ABL1 (human) (UniProt P00519)", 109],
  ["NCC(=O)Nc1ccc(-n2nc(C(F)(F)F)cc2-c2ccc3c(ccc4ccccc43)c2)cc1", "ABL1 (human) (UniProt P00519)", 95],
  ["COc1cc(C(=O)N2CCOCC2)c(F)cc1Nc1ncc(C(F)(F)F)c(NC2CC2)n1", "ABL1 (human) (UniProt P00519)", 106],
  ["Cc1ccc(=O)n(-c2ccccc2)c1", "ABL1 (human) (UniProt P00519)", 106],
  ["O=C(Nc1nc2cc(C(F)(F)F)cc(NC3CC3)n2n1)c1cccnc1", "ABL1 (human) (UniProt P00519)", 97]
]}
